Molecular target: T1, HsLARP6 La module (70-300) (Homo sapiens, UniProt Q9BRS8 70-300)
T1 sequence: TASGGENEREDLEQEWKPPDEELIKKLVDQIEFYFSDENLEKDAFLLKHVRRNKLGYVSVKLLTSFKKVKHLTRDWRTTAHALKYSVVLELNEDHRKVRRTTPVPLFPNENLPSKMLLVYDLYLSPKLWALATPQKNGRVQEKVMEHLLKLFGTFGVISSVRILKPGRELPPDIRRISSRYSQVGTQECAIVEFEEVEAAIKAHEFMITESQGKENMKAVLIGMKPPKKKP
Test: ITC; 200 mM KCl; ITC: 20 mM Tris pH 7.25, 100 mM KCl, 5 mM MgCl2, 1 mM DTT, 298 K; protein titrated into RNA
Conditions: protein: recombinant; tags: N-terminal His6, TEV-cleaved for initial ITC; stem-loop with internal bulge
VALUE_TYPE: Kd

Consider CCACAAAGAGUCUACAUGUCUAGGGUCUAGACAUGUUCAGCUUUGUGG (structured_RNA) [48 nt RNA (collagen alpha1(I) 5' UTR SL)] . Its measured Kd is 50 nM

// provenance: paper PMC4288179
